# test-target: Human TRPV3 expressing CHO cells (Homo sapiens, UniProt Q8NET8)
# Construct: expressed in transfected cells; host or cells: CHO cells, kept under G-418 selection
# test: 45Calcium uptake assay: inhibition of 2-APB induced cellular uptake of radioactive calcium
# Type: cell-based
# test-conditions: compound at 1.0 μM, 2-APB 500 μM, read-out: Percentage inhibition at 1.0 μM
reported-metric: inhibition at 1 µM (%)
Quick reminder: number only, in %, skip the unit.

# input molecule: CCCCCOc1c(/C=C/c2nc3sccn3c2C(=O)Nc2nc(C(F)(F)F)cs2)cccc1OC(F)F [Example 33] ; wanted: its inhibition at 1 µM
51.8

# input molecule: CC(C)(C)COc1c(/C=C/c2nc3sccn3c2C(=O)Nc2ccc(C#N)cn2)cccc1OC(F)F [Example 26] ; wanted: its inhibition at 1 µM
70.1

# input molecule: COc1cccc(/C=C/c2nc3sccn3c2C(=O)Nc2nc(C(F)(F)F)cs2)c1OCC(C)C [Example 6] ; wanted: its inhibition at 1 µM
93

# input molecule: COc1cccc(/C=C/c2nc3sccn3c2C(=O)Nc2nc(-c3ccc(C#N)cc3)cs2)c1OCC(C)(C)C [Example 15] ; wanted: its inhibition at 1 µM
20.7

# input molecule: CC(C)(C)COc1c(/C=C/c2nc3sccn3c2C(=O)NCc2cccc(C(F)(F)F)c2)cccc1OC(F)F [Example 25] ; wanted: its inhibition at 1 µM
0

# input molecule: COc1cccc(/C=C/c2nc3ccccn3c2C(=O)Nc2nc(C(F)(F)F)cs2)c1OCC(C)(C)C [Example 37] ; wanted: its inhibition at 1 µM
94.9

# input molecule: O=C(Nc1nc(C2CC2)cs1)c1c(/C=C/c2cccc(OC(F)F)c2OCC2CCC2)nc2sccn12 [Example 35] ; wanted: its inhibition at 1 µM
84.3

---

# test-target: Human TRPV3 expressing CHO cells (Homo sapiens, UniProt Q8NET8)
# Construct: expressed in transfected cells; host or cells: CHO cells, kept under G-418 selection
# test: 45Calcium uptake assay: inhibition of 2-APB induced cellular uptake of radioactive calcium
# Type: cell-based
# test-conditions: compound at 10.0 μM, 2-APB 500 μM, read-out: Percentage inhibition at 10.0 μM
reported-metric: inhibition at 10 µM (%)
Quick reminder: number only, in %, skip the unit.

# input compound: `CC(C)(C)COc1c(/C=C/c2nc3sccn3c2C(=O)Nc2nc3c(s2)CCC3)cccc1OC(F)F` ; wanted: its inhibition at 10 µM
15.6

# input compound: `O=C(Nc1nc(C2CC2)cs1)c1c(/C=C/c2cccc(OC(F)F)c2OCC2CCC2)nc2sccn12` ; wanted: its inhibition at 10 µM
96.5

# input compound: `CCCCCOc1c(/C=C/c2nc3sccn3c2C(=O)Nc2nc(C(F)(F)F)cs2)cccc1OC(F)F` ; wanted: its inhibition at 10 µM
93.1

# input compound: `CCN(C(=O)c1c(/C=C/c2cccc(OC)c2OCC(C)(C)C)nc2sccn12)c1nc(C(F)(F)F)cs1` ; wanted: its inhibition at 10 µM
84.8

# input compound: `COc1cccc(/C=C/c2nc3sccn3c2C(=O)Nc2nc(-c3ccc(C#N)cc3)cs2)c1OCC(C)(C)C` ; wanted: its inhibition at 10 µM
26.6

# input compound: `COc1cccc(/C=C/c2nc3sccn3c2C(=O)N2CCCc3ccccc32)c1OCC1CC1` ; wanted: its inhibition at 10 µM
90.6

# input compound: `COc1cccc(/C=C/c2nc3sccn3c2C(=O)Nc2nc(C(F)(F)F)cs2)c1OCC(C)(C)C` ; wanted: its inhibition at 10 µM
99.5

---

# test-target: Human TRPV3 expressing CHO cells (Homo sapiens)
# Construct: expressed in transfected cells; host or cells: CHO cells, kept under G-418 selection
# Sequence (Q8NET8 1-790): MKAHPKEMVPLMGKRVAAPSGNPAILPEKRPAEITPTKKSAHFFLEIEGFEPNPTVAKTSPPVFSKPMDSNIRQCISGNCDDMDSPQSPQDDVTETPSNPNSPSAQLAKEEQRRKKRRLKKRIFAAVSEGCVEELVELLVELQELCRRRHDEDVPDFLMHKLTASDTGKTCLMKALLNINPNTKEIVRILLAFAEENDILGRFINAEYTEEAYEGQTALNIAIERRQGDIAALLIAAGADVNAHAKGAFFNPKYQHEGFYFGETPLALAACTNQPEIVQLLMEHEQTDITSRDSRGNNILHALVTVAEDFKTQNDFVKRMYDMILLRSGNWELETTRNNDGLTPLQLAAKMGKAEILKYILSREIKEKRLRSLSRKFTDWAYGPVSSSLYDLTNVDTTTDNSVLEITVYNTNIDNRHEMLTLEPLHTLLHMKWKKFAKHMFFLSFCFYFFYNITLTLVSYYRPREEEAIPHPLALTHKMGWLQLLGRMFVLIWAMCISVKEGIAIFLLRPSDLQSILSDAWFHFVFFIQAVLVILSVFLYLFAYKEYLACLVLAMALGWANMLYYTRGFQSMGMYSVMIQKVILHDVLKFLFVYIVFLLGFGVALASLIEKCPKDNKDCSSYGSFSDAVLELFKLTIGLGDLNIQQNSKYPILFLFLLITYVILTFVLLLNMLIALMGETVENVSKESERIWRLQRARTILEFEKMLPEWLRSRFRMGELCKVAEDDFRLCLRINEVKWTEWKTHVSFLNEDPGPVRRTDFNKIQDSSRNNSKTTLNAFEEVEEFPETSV
# test: 45Calcium uptake assay: inhibition of 2-APB induced cellular uptake of radioactive calcium
# Format: cell-based
# test-conditions: compound at 10.0 μM, 2-APB 500 μM, read-out: Percentage inhibition at 10.0 μM
# Procedure: Certain illustrative compounds within the scope of the present invention are screened for TRPV3 activity according to a modified procedure described in (a) Tóth, A. et al. Life Sciences 2003, 73, 487-498. […] The inhibition of TRPV3 receptor activation was followed as inhibition of 2-aminoethxydiphenylborate (2-APB) induced cellular uptake of radioactive calcium. […] Radioactivity in the lysate was measured in Packardt Top count after addition of liquid scintillant. […]
Respond with yes (1) for inhibition at 10 µM values of 90% and above, no (0) for values below.

Hi team, for `CC(C)(C)COc1c(/C=C/c2nc3sccn3c2C(=O)Nc2nc3ccc(F)cc3s2)cccc1OC(F)F` , is the recorded inhibition at 10 µM at or above 90%?
no (0)

Hi team, for `COc1cccc(/C=C/c2nc3sccn3c2C(=O)Nc2nc(C(F)(F)F)cs2)c1OCC1CC1` , is the recorded inhibition at 10 µM at or above 90%?
yes (1)

Hi team, for `COc1cccc(/C=C/c2nc3sccn3c2C(=O)Nc2nnc(C(F)(F)F)s2)c1OCC(C)(C)C` , is the recorded inhibition at 10 µM at or above 90%?
no (0)

Hi team, for `CC(C)(C)COc1c(/C=C/c2nc3sccn3c2C(=O)NCc2cccc(C(F)(F)F)c2)cccc1OC(F)F` , is the recorded inhibition at 10 µM at or above 90%?
no (0)

Hi team, for `CCCCCOc1c(/C=C/c2nc3sccn3c2C(=O)Nc2nc(C3CC3)cs2)cccc1OC(F)F` , is the recorded inhibition at 10 µM at or above 90%?
yes (1)

---

# test-target: Human TRPV3 expressing CHO cells (Homo sapiens, UniProt Q8NET8)
# Construct: expressed in transfected cells; host or cells: CHO cells, kept under G-418 selection
# test: 45Calcium uptake assay: inhibition of 2-APB induced cellular uptake of radioactive calcium
# Assay type: cell-based
# test-conditions: compound at 1.0 μM, 2-APB 500 μM
Give Percentage inhibition at 1.0 μM for every item shown.
Quick reminder: number only, in %, skip the unit.

Field: Percentage inhibition at 1.0 μM (Human TRPV3 expressing CHO cells (Homo sapiens, UniProt Q8NET8)). Entry: `CC(C)(C)COc1c(/C=C/c2nc3ccccn3c2C(=O)Nc2nc(C3CCC3)cs2)cccc1OC(F)F`
56.41

Field: Percentage inhibition at 1.0 μM (Human TRPV3 expressing CHO cells (Homo sapiens, UniProt Q8NET8)). Entry: `COc1cccc(/C=C/c2nc3sccn3c2C(=O)N2CCn3c(nnc3C(F)(F)F)C2)c1OCC(C)(C)C`
10.33

Field: Percentage inhibition at 1.0 μM (Human TRPV3 expressing CHO cells (Homo sapiens, UniProt Q8NET8)). Entry: `COc1cccc(/C=C/c2nc3sccn3c2C(=O)Nc2nc(C(F)(F)F)co2)c1OCC(C)(C)C`
10.75

Field: Percentage inhibition at 1.0 μM (Human TRPV3 expressing CHO cells (Homo sapiens, UniProt Q8NET8)). Entry: `CC(C)CCOc1c(/C=C/c2nc3ccccn3c2C(=O)Nc2nc(C(F)(F)F)cs2)cccc1OC(F)F`
52.99

---

Give inhibition at 1 µM for every item shown.
# test-target: Human TRPV3 expressing CHO cells (Homo sapiens, UniProt Q8NET8)
# Construct: expressed in transfected cells; host or cells: CHO cells, kept under G-418 selection
# Sequence (Q8NET8 1-790): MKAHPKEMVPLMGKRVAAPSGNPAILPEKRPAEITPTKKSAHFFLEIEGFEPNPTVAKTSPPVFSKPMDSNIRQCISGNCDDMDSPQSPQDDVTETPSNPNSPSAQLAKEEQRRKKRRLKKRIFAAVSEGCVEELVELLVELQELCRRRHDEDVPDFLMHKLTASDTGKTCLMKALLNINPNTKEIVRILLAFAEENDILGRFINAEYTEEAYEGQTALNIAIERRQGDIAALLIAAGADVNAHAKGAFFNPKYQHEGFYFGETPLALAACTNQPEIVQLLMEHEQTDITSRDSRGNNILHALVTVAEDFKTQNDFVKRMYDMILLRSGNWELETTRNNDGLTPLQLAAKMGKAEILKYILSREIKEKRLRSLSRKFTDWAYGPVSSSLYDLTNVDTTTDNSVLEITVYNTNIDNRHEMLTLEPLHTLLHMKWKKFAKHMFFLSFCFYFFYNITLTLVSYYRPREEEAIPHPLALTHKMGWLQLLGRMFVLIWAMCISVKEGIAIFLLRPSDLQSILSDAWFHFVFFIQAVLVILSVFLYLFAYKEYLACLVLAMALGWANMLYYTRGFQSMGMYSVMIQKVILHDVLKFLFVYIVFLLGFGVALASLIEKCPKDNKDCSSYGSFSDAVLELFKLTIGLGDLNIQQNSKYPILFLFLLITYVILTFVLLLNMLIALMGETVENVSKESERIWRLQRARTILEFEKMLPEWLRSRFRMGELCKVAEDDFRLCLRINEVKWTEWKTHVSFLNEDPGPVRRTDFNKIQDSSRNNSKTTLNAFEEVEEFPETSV
# test: 45Calcium uptake assay: inhibition of 2-APB induced cellular uptake of radioactive calcium
# Assay type: cell-based
# test-conditions: compound at 1.0 μM, 2-APB 500 μM, read-out: Percentage inhibition at 1.0 μM
Quick reminder: number only, in %, skip the unit.

# input compound: `CCN(C(=O)c1c(/C=C/c2cccc(OC)c2OCC(C)(C)C)nc2sccn12)c1nc(C(F)(F)F)cs1` ; wanted: its inhibition at 1 µM
75.1

# input compound: `O=C(Nc1nc(C(F)(F)F)cs1)c1c(/C=C/c2cccc(O)c2O)nc2sccn12` ; wanted: its inhibition at 1 µM
13.9

# input compound: `CC(C)(C)COc1c(/C=C/c2nc3sccn3c2C(=O)Nc2cccc(C(F)(F)F)c2)cccc1OC(F)F` ; wanted: its inhibition at 1 µM
22.5

# input compound: `CC(C)(C)COc1c(/C=C/c2nc3ccccn3c2C(=O)Nc2nc(C3CC3)cs2)cccc1OC(F)F` ; wanted: its inhibition at 1 µM
76.1

# input compound: `COc1cccc(/C=C/c2nc3sccn3c2C(=O)Nc2nnc(C(F)(F)F)s2)c1OCC(C)(C)C` ; wanted: its inhibition at 1 µM
13.3

# input compound: `CCCCCOc1c(/C=C/c2nc3sccn3c2C(=O)Nc2nc(C3CC3)cs2)cccc1OC(F)F` ; wanted: its inhibition at 1 µM
78.1

# input compound: `COc1cccc(/C=C/c2nc3sccn3c2C(=O)Nc2nc(C(C)(C)C)cs2)c1OCC(C)(C)C` ; wanted: its inhibition at 1 µM
88.1

# input compound: `COc1cccc(/C=C/c2nc3sccn3c2C(=O)Nc2nc(C(F)(F)F)cs2)c1OCC1CC1` ; wanted: its inhibition at 1 µM
73.2

# input compound: `CC(C)(C)COc1c(/C=C/c2nc3sccn3c2C(=O)Nc2nc(C(F)(F)F)cs2)cccc1OC(F)F` ; wanted: its inhibition at 1 µM
96.9

# input compound: `O=C(Nc1nc(C(F)(F)F)cs1)c1c(/C=C/c2cccc(OC(F)F)c2OC2CCCC2)nc2sccn12` ; wanted: its inhibition at 1 µM
85.3

# input compound: `CC(C)(C)COc1c(/C=C/c2nc3sccn3c2C(=O)NCC(F)(F)F)cccc1OC(F)F` ; wanted: its inhibition at 1 µM
60.9
